Target: human tau(pS422) (Homo sapiens, UniProt P10636, S739X)
Experiment: BIAcore kinetic screening and kinetic rates of humanized VH/VL combinations
Type: binding
Conditions: 25 °C; VH14 or VH20 with VL variants
Description: In the following Table characteristics of the different humanized variants of the rabbit light chain variable domain in combination with the humanized heavy chain variable domains VH14 and VH20, respectively, are shown. Binding partner was human tau(pS422). Kinetic screening was performed according to Schraeml et al. (Schraeml, M. and M. Biehl, Methods Mol. Biol. 901 (2012) 171-181) on a BIAcore 4000 instrument, mounted with a BIAcore CM5 sensor. […] The dissociation was monitored for 5 minutes. […]
Threshold check on kd: at or above 0.003 s⁻¹ gives TRUE, strictly below gives FALSE.

- MOLECULE: "VH14 with VL12: anti-human tau(pS422) antibody; VH SEQ ID NO: 50, VL SEQ ID NO: 34 (antibody, V domains shown, humanized sequence) VH: QQLVESGGGLVQPGGSLRLSCAASGFSLSSNAINWVRQAPGKGLEWVGYIAVSGNTYYASWAKGRFTISRDNSKNTLYLQMNSLRAEDTAVYYCGKSNIWGPGTLVTVSS VL: DIQMTQSPSSLSASVGDRVTITCRASQGVRTNKLAWFQQKPGQPPKRLIYSASTLQSGVPSRFSGSGSGTEFTLTISSLQPEDFATYYCLGYFDCSIADCVAFGGGTKVEIK"
  LABEL_CLASS: "FALSE"
- MOLECULE: "VH14 with VL00: anti-human tau(pS422) antibody; VH SEQ ID NO: 50, VL SEQ ID NO: 07 (antibody, listed as Oryctolagus cuniculus, V domains shown, humanized sequence) VH: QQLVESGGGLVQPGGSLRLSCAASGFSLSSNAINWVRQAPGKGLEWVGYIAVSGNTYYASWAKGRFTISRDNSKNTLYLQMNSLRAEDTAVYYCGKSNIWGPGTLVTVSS VL: AQVLTQTTSPVSAAVGSTVTISCQSSQSVRTNKLAWFQQKPGQPPKRLIYSASTLDFGVPSRFSASGSGTQFTLTISDVQCDDAATYYCLGYFDCSIADCVAFGGGTEVVVK"
  LABEL_CLASS: "FALSE"
- MOLECULE: "VH14 with VL33: anti-human tau(pS422) antibody; VH SEQ ID NO: 50, VL SEQ ID NO: 40 (antibody, V domains shown, humanized sequence) VH: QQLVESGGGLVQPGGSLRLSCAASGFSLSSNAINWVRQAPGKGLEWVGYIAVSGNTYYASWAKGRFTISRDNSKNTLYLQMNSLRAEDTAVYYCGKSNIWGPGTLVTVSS VL: AIQMTQSPSSLSASVGDRVTITCRSSQSVRTNRLAWFQQKPGQPPKRLIYSASTLDFGVPSRFSGSGSGTEFTLTISSLQPEDFATYYCLGYFDSSIADIVAFGGGTKVEIK"
  LABEL_CLASS: "TRUE"
- MOLECULE: "VH14 with VL39: anti-human tau(pS422) antibody; VH SEQ ID NO: 50, VL SEQ ID NO: 42 (antibody, V domains shown, humanized sequence) VH: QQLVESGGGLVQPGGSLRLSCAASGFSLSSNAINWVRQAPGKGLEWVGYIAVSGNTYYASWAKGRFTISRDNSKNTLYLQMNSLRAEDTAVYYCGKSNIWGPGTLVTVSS VL: DIQMTQSPSSLSASVGDRVTITCRSSQSVRTNRLAWFQQKPGQPPKRLIYSASTLDFGVPSRFSGSGSGTEFTLTISSLQPEDFATYYCLGYFDPSIADPVAFGGGTKVEIK"
  LABEL_CLASS: "TRUE"
- MOLECULE: "VH14 with VL22: anti-human tau(pS422) antibody; VH SEQ ID NO: 50, VL SEQ ID NO: 17 (antibody, V domains shown, humanized sequence) VH: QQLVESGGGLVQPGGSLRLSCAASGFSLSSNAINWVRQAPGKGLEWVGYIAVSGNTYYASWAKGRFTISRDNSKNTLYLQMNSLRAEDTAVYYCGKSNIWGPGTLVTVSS VL: AQVMTQSPSSLSASVGDRVTITCRSSQSVRTNRLAWFQQKPGQPPKRLIYSASTLDYGVPSRFSGSGSGTEFTLTISSLQPEDFATYYCLGYFDSSADIVAFGGGTKVEIK"
  LABEL_CLASS: "TRUE"
- MOLECULE: "VH14 with VL15: anti-human tau(pS422) antibody; VH SEQ ID NO: 50, VL SEQ ID NO: 35 (antibody, V domains shown, humanized sequence) VH: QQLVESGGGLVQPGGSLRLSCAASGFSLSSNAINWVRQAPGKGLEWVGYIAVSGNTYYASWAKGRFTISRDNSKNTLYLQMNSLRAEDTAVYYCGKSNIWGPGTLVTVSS VL: DIQMTQSPSSLSASVGDRVTITCRASQGVRTNKLAWFQQKPGQPPKRLIYSASTLQSGVPSRFSGSGSGTEFTLTISSLQPEDFATYYCLGYFDSSIADSVAFGGGTKVEIK"
  LABEL_CLASS: "TRUE"
- MOLECULE: "VH14 with VL19: anti-human tau(pS422) antibody; VH SEQ ID NO: 50, VL SEQ ID NO: 38 (antibody, V domains shown, humanized sequence) VH: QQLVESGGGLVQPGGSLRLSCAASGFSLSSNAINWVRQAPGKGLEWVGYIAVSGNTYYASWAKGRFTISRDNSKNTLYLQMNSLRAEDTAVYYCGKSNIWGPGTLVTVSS VL: AQVMTQSPSSLSASVGDRVTITCRSSQSVRTNKLAWFQQKPGQPPKRLIYSASTLDFGVPSRFSGSGSGTEFTLTISSLQPEDFATYYCLGYFDCSIADCVAFGGGTKVEIK"
  LABEL_CLASS: "FALSE"
- MOLECULE: "VH14 with VL28: anti-human tau(pS422) antibody; VH SEQ ID NO: 50, VL SEQ ID NO: 39 (antibody, V domains shown, humanized sequence) VH: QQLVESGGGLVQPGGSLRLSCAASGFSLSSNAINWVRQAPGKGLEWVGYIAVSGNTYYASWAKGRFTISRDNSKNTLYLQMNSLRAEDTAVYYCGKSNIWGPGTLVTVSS VL: AIQMTQSPSTLSASVGDRVTITCRSSQSVRTNRLAWFQQKPGKAPKRLIYSASTLDFGVPSRFSGSGSGTEFTLTISSLQPDDFATYYCLGYFDPSADPVAFGGGTKVEIK"
  LABEL_CLASS: "TRUE"

Values from patent US10251952B2
